I'd appreciate it if you could supply inhibition at 10 µM values for the items below.
Molecular target: human OX2 receptor (Homo sapiens)
Construct: expressed in transfected cells; host or cells: CHO cells
Test: Measurement of orexin receptor antagonistic activity (calcium fluorescence, FLIPRtetra)
Format: cell-based
Details: CHO, 10 μM test compound; CHO cells expressing human OX2 receptor; OX-A 0.3 nM; read-out: Human Orexin2 receptor inhibition (at 10 μM)
Description: Measurement of Orexin Receptor Antagonistic Activity CHO cells forcibly expressing human OX1 receptor or human OX2 receptor were seeded in each well of 384 well black transparent bottom plate (BD Falcon) at 7,500 cells/well, and cultured for one day in a 5% CO2 incubator at 37° C. […] The plate was stood for 30 min in a 5% CO2 incubator at 37° C., and further stood at room temperature for 30 min. […]
Structures can show the parent of a compound that is named as a salt.

Asked: Entry "Cc1ccc(-n2nccn2)c(C(=O)N2CCN(c3nc(C)cc(C)n3)OC[C@H]2C)c1" has what inhibition at 10 µM?
Given back: 96%

Asked: // inhibition at 10 µM lookup, key: Cc1cc(N2OCCN(C(=O)c3ccccc3-n3nccn3)CC2C)nc(C)n1 (stereo not shown)
Given back: 29%

Asked: So what's the measured inhibition at 10 µM for this one? Cc1cc(C)nc(N2CCN(C(=O)c3cc(F)ccc3-n3nccn3)[C@H](C)CO2)n1 [Example 161, hydrochloride]
Given back: 102%

Asked: Which inhibition at 10 µM reading was recorded for the molecule "Cc1cc(C)nc(N2CCN(C(=O)c3ccccc3C#N)CCO2)n1" ?
Given back: 19%

----------
Target: human OX1 receptor (Homo sapiens, UniProt O43613)
Construct: expressed in transfected cells; host or cells: CHO cells
Sequence (O43613 whole entry): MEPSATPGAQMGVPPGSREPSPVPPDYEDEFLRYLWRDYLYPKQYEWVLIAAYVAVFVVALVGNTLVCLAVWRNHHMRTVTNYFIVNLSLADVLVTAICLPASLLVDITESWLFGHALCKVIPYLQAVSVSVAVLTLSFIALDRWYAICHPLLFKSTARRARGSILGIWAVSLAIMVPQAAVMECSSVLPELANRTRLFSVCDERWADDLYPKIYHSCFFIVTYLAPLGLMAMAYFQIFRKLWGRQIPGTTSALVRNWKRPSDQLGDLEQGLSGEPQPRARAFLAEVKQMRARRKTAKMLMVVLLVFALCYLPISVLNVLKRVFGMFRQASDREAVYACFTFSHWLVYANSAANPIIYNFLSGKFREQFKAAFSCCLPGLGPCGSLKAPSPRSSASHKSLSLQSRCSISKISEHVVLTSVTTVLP
Assay: Measurement of orexin receptor antagonistic activity (calcium fluorescence, FLIPRtetra)
Format: cell-based
Details: CHO, 10 μM test compound; CHO cells expressing human OX1 receptor; OX-A 1 nM; read-out: Human Orexin1 receptor inhibition (at 10 μM)
Hi there, I'd appreciate the recorded inhibition at 10 µM for every entry that follows.
Give the quantity in %, number only.

Asked: Any idea what its inhibition at 10 µM is? The compound is Cc1cc(N2CCN(C(=O)c3ccc(Cl)cc3-n3nccn3)CCO2)nc(C)n1 [Example 204]
Given back: 70

Asked: Any idea what its inhibition at 10 µM is? The compound is Cc1ccc(-n2nccn2)c(C(=O)N2CCON(c3nc4ccc(Cl)cc4o3)CC2)c1 [Example 39]
Given back: 100

Asked: Would you mind telling me what inhibition at 10 µM value was observed for Cc1cc(N2CCN(C(=O)c3ccccc3-n3ncnn3)CCO2)nc(C)n1 [Example 31] ?
Given back: -2

Asked: Entry Cc1ccc(C(=O)N2CCN(c3cc(C)nc(C)n3)O[C@@H](C)C2)c(-c2ncccn2)c1 [Example 217] : reported inhibition at 10 µM = ?
Given back: 50

Asked: Consider the compound Cc1cc(N2C[C@H](C)N(C(=O)c3ccccc3-n3nccn3)CC(C)O2)nc(C)n1 (some centres unmarked) [Example 190] and give its measured inhibition at 10 µM.
Given back: 107

Asked: Need inhibition at 10 µM, item Cc1cc(C)nc(N2CCN(C(=O)c3cc(Cl)cc(Cl)c3)CCO2)n1 [Example 56]
Given back: 21

Asked: Which inhibition at 10 µM is reported for this compound? COc1cc(N2CCN(C(=O)c3ccccc3-n3nccn3)[C@H](C)CO2)nc(C)n1 [Example 160]
Given back: 82

Asked: Need inhibition at 10 µM of Cc1cc(N2CC(C)N(C(=O)c3ccccc3-n3nccn3)CCO2)nc(C)n1 (centres unmarked) [Example 187] , thanks.
Given back: 100

Asked: For the compound shown here, Cc1cc(N2CCN(C(=O)c3ccccc3-n3nccn3)[C@H](C)CO2)nc(C(C)(C)C)n1 [Example 154] , give the reported inhibition at 10 µM.
Given back: 97

Asked: Param item = Cc1ccc(-n2nccn2)c(C(=O)N2[C@H](C)CON(c3cc(C(F)(F)F)nc(C)n3)C[C@@H]2C)c1 [Example 178] ; retrieve measured inhibition at 10 µM.
Given back: 105

Asked: Item Cc1nc(C(F)F)cc(N2CCN(C(=O)c3cc(Cl)ccc3-n3nccn3)C[C@H](C)O2)n1 [Example 103] has what recorded inhibition at 10 µM?
Given back: 90

Asked: Consider the compound Cc1cc(C)nc(N2CCN(C(=O)c3ccccc3-n3nccn3)[C@H](C)CO2)n1 [Example 147] and give its measured inhibition at 10 µM.
Given back: 60

Asked: What does the data say about its inhibition at 10 µM? Entry: Cc1nccc(N2C[C@H](C)N(C(=O)c3ccccc3-n3nccn3)[C@H](C)CO2)n1 [Example 173]
Given back: 103

Asked: Report inhibition at 10 µM for COc1ccccc1C(=O)N1CCON(c2nc(C)cc(C)n2)CC1 [Example 51] please.
Given back: 22

Asked: Entry under review: Cc1cc(N2CCN(C(=O)c3cc(F)c(F)cc3-c3ncccn3)[C@H](C)CO2)nc(C)n1 [Example 231] . Reported inhibition at 10 µM?
Given back: 38

Asked: What measured inhibition at 10 µM goes with Cc1cc(N2CCN(C(=O)c3ccccc3-c3ncccn3)C[C@H](C)O2)nc(C)n1 [Example 109] ?
Given back: 85

Asked: So what's the measured inhibition at 10 µM for this one? Cc1cc(N2CCN(C(=O)c3ccccc3-c3ncccn3)[C@H](C)CO2)nc(C)n1 [Example 213]
Given back: 47

----------
Molecular target: human OX2 receptor (Homo sapiens)
Construct: expressed in transfected cells; host or cells: CHO cells
Sequence (O43614 1-444): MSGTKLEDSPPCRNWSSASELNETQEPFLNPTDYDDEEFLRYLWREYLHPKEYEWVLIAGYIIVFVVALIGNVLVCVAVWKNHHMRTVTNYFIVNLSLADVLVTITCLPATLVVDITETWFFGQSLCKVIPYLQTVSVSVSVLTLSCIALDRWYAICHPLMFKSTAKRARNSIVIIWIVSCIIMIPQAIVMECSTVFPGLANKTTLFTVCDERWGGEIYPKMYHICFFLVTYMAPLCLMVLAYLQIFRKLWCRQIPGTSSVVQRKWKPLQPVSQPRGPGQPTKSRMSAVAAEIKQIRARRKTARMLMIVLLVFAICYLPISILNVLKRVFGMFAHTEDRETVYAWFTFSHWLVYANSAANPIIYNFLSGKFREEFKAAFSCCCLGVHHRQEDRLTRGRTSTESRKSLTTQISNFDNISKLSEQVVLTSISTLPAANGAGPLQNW
Experiment: Measurement of orexin receptor antagonistic activity (calcium fluorescence, FLIPRtetra)
Type: cell-based
Conditions: CHO, 10 μM test compound; CHO cells expressing human OX2 receptor; OX-A 0.3 nM; read-out: Human Orexin2 receptor inhibition (at 10 μM)
Procedure: Measurement of Orexin Receptor Antagonistic Activity CHO cells forcibly expressing human OX1 receptor or human OX2 receptor were seeded in each well of 384 well black transparent bottom plate (BD Falcon) at 7,500 cells/well, and cultured for one day in a 5% CO2 incubator at 37° C. […] The plate was stood for 30 min in a 5% CO2 incubator at 37° C., and further stood at room temperature for 30 min. […]
I'd be grateful if you could share measured inhibition at 10 µM for these entries.
The reply should be a number in %, with the unit left off.

Asked: So what's the measured inhibition at 10 µM for this one? Cc1cc(N2CCN(C(=O)c3cc(F)ccc3-n3cccn3)CCO2)nc(C)n1 [Example 28]
Given back: 74

Asked: Which inhibition at 10 µM value belongs to Cc1csc(N2CCN(C(=O)c3cc(F)ccc3-n3nccn3)[C@H](C)CO2)n1 [Example 164] ?
Given back: 43

Asked: Reported inhibition at 10 µM for Cc1ccc(-n2nccn2)c(C(=O)N2CCN(c3ccc(Cl)cn3)OC[C@H]2C)c1 [Example 121] : what is it?
Given back: 94

Asked: Report inhibition at 10 µM for Cc1nc(C(F)F)cc(N2CCN(C(=O)c3cc(Cl)ccc3-n3nccn3)C[C@H](C)O2)n1 [Example 103] please.
Given back: 100

----------
Biological target: human OX2 receptor (Homo sapiens)
Construct: expressed in transfected cells; host or cells: CHO cells
Assay: Measurement of orexin receptor antagonistic activity (calcium fluorescence, FLIPRtetra)
Type: cell-based
Settings: CHO, read-out: Human Orexin2 receptor inhibition (at 10 μM)
Experimental: Measurement of Orexin Receptor Antagonistic Activity CHO cells forcibly expressing human OX1 receptor or human OX2 receptor were seeded in each well of 384 well black transparent bottom plate (BD Falcon) at 7,500 cells/well, and cultured for one day in a 5% CO2 incubator at 37° C. […] The plate was stood for 30 min in a 5% CO2 incubator at 37° C., and further stood at room temperature for 30 min. […]
Readout label: inhibition at 10 µM (%)
Return type: number; implicit unit %.

Asked: Give the measured inhibition at 10 µM of "Cc1ccc(-n2nccn2)c(C(=O)N2CCN(c3ccnc(C)c3)OC[C@H]2C)c1" .
Given back: 12

Asked: What does the record list as inhibition at 10 µM for "COc1ccnc(N2CCN(C(=O)c3cc(C)ccc3-n3nccn3)[C@H](C)CO2)c1" ?
Given back: 100

Asked: Given the entry "Cc1ccc(-n2nccn2)c(C(=O)N2CCN(c3cccc(C#N)c3)OC[C@H]2C)c1" , report its measured inhibition at 10 µM.
Given back: 88

Asked: # query: inhibition at 10 µM of entry "Cc1ccc(-n2nccn2)c(C(=O)N2CCN(c3ccc(F)cc3)OC[C@H]2C)c1"
Given back: 88

Asked: Quick one: inhibition at 10 µM for "Cc1cc(C)nc(N2CCN(C(=O)c3cccc4nccnc34)CCO2)n1" ?
Given back: 44

Asked: Any idea what its inhibition at 10 µM is? The molecule is "Cc1cc(C)nc(N2CCN(C(=O)c3cc(C#N)ccc3C)CCO2)n1"
Given back: 24

Asked: Can you share its inhibition at 10 µM? I mean this molecule: "Cc1ccc(-n2nccn2)c(C(=O)N2CCN(c3cccc(-n4cccn4)n3)OC[C@H]2C)c1"
Given back: 95

Asked: Look at this molecule and give its reported inhibition at 10 µM. "Cc1ccc(-n2nccn2)c(C(=O)N2CCN(c3cc(C)nc(C)c3)OC[C@H]2C)c1"
Given back: 44

Asked: Entry "Cc1cc(C)nc(N2CCN(C(=O)c3cccc4ncccc34)CCO2)n1" : reported inhibition at 10 µM = ?
Given back: 84

Asked: Requested field: inhibition at 10 µM. Item: "Cc1cc(C)nc(N2CCN(C(=O)c3cccc4ncc(C)nc34)CCO2)n1"
Given back: 87

Asked: GET /values?readout=inhibition at 10 µM&item= "Cc1cc(C)nc(N2CCN(C(=O)c3cccc4nn(C)cc34)CCO2)n1"
Given back: 45

Asked: Dear colleague, I am looking for the recorded inhibition at 10 µM of the following molecule: "Cc1ccc(-n2nccn2)c(C(=O)N2CCN(c3ccnc(C(F)(F)F)c3)OC[C@H]2C)c1"
Given back: 88

Asked: # inhibition at 10 µM lookup, item "Cc1ccc(-n2nccn2)c(C(=O)N2CCN(c3ncccc3C)OC[C@H]2C)c1"
Given back: 82

Asked: Which measured inhibition at 10 µM value corresponds to "Cc1ccc(-n2nccn2)c(C(=O)N2CCN(c3ccc(F)c(Cl)c3)OC[C@H]2C)c1" ?
Given back: 80
